These measurements were taken from ChEMBL document CHEMBL1201862.

- System: CCRF-CEM
- test: NCI tumour cell line growth inhibition, 48 h
The source made the active and inactive calls. Cut-off read from the data, not from the text of the source: active = GI50 up to about 1.1 µM and inactive = higher.
Hello, when you answer, please use one of the following outcomes: y (active), n (inactive)

Answered cases to consult:
molecule=Cc1ccc(NC(=O)CCc2nnc3s/c(=C\C=C\c4ccccc4)c(=O)n23)cc1 tested_target=CCRF-CEM category_label=n
molecule=O=C(c1ccccc1O)c1cc(-c2ncc3c(=O)c4ccccc4oc3n2)c(-c2ccccc2O)[nH]c1=O tested_target=CCRF-CEM category_label=n
molecule="C/C(=N\\NC(=N)N)C(CN1CCCCC1)C(c1ccccc1)c1c(O)c2ccccc2oc1=O (configuration not stated)" tested_target=CCRF-CEM category_label=n

Would you mind telling me which call this test gave CC1=C(C(=O)NCc2ccccc2)C(c2ccc(N(C)C)cc2)C(C(=O)NCc2ccccc2)=C(C)N1 ?
n

Would you mind telling me which call this test gave Cc1ccc(/C=N/NS(=O)(=O)c2ccccc2)c(C)c1 ?
n
